tested on: Cynomolgus monkey; assay: In vivo inhibition of complement factor D in cynomolgus monkey assessed as decrease in zymosan-induced AP activation by measuring soluble MAC complex deposition in serum administered as single dose via oral gavage measured at 4 to 24 hrs post dose; type: functional, organism-based; details: Macaca fascicularis
QUANTITY NAME: EC50 (nM)
Write down the numeric answer in nM and omit the unit.

For the molecule shown here, `NC(=O)c1nn(CC(=O)N2[C@@H]3C[C@@H]3C[C@H]2C(=O)Nc2cccc(Br)n2)c2ccccc12` , give the reported EC50.
38

---

test: Terminal half life in Sprague-Dawley rat at 1 mg/kg, iv administered as bolus dose by LC-MS/MS analysis; format: ADME, organism-based; conditions: in vivo, read-out: beta t1/2 (converted)
QUANTITY NAME: half-life (h)
Write down the numeric answer in h and omit the unit.

For the compound shown here, `NC(=O)n1cc(NC(=O)N2CCC[C@H]2C(=O)Nc2cccc(OC(F)(F)F)c2)c2ccccc21` , give the reported half-life.
1.4
